target: GCase (Homo sapiens); construct: endogenous in cells; host or cells: HeLa cells; assay: activation of GCase in a live cell PFB assay in HELA cells; assay type: cell-based; conditions: activation of GCase, EC50 ranges
Sequence (P04062 40-536): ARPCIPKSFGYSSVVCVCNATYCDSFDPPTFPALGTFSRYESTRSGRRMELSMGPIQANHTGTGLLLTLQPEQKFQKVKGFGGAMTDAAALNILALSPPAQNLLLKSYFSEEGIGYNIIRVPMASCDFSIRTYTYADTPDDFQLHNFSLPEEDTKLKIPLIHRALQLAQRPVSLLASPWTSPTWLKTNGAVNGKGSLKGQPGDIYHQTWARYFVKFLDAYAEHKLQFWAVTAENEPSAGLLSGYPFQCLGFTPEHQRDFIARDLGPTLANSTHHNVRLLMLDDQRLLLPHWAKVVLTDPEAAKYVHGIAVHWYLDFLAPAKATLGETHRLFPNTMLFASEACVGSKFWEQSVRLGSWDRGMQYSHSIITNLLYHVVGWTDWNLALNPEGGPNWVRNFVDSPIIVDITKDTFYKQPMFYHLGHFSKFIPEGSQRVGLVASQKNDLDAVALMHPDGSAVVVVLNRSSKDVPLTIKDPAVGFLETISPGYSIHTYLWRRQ
Recorded EC50 values for a group of compounds are listed next.

Q: Consider the compound O=C1N(Cc2cnc(C(F)(F)F)cn2)CCC12CCN(c1cnc3cnn(CC(F)F)c3n1)CC2 and give its recorded EC50.
Result: 10 to 50 µM

Q: Consider the compound CCn1c(N2CCC3(CN(c4cc(C(F)(F)F)nc(C)n4)C3)C2)nc2c(cnn2CC(F)F)c1=O and give its recorded EC50.
Result: < 10 µM

Q: Consider the compound FC(F)Cn1ncc2ncc(N3CCC4(CCN(c5cncc(C(F)(F)F)c5)CC4)C3)nc21 and give its recorded EC50.
Result: < 10 µM

Here is the next item to consider.
Q: Consider the compound O=C1N(c2cncc(C(F)(F)F)n2)CCC12CCN(c1cnc3cnn(CC(F)F)c3n1)CC2 and give its recorded EC50.
Result: < 10 µM

Entry source: patent US20250034170A1
